system: Klebsiella pneumoniae; test: Antibacterial activity against Klebsiella pneumoniae after 16 to 18 hrs by […]; assay type: functional
MEASUREMENT KIND: MIC (µg/mL)

# TEST SMILES, UNIT INFO, RECORDED RESULT
rows = [
    ("N#Cc1ccc(C(=O)OCc2csc(N)n2)cn1", "µg/mL", 6.25),
    ("Nc1nc(COC(=O)c2cccs2)cs1", "µg/mL", 25),
    ("Nc1nc(COC(=O)c2c(F)cc(F)cc2F)cs1", "µg/mL", 25),
    ("Nc1nc(COC(=O)c2ccc3ccccc3c2)cs1", "µg/mL", 6.25),
    ("N#Cc1cccc(C(=O)OCc2csc(N)n2)n1", "µg/mL", 25),
    ("Nc1nc(COC(=O)c2cccc([N+](=O)[O-])c2Cl)cs1", "µg/mL", 6.25),
    ("Nc1nc(COC(=O)c2ccccc2[N+](=O)[O-])cs1", "µg/mL", 6.25),
    ("Nc1nc(COC(=O)c2c(Cl)cc(Cl)cc2Cl)cs1", "µg/mL", 12.5),
    ("Nc1nc(COC(=O)c2ccc(Cl)cc2)cs1", "µg/mL", 6.25),
    ("Nc1nc(COC(=O)c2ccco2)cs1", "µg/mL", 6.25),
    ("N#Cc1ccccc1C(=O)OCc1csc(N)n1", "µg/mL", 12.5),
    ("Nc1nc(COC(=O)c2cc(F)cc(C(F)(F)F)c2)cs1", "µg/mL", 25),
    ("Nc1nc(COC(=O)c2ccccc2)cs1", "µg/mL", 6.25),
]

---

system: Pseudomonas aeruginosa; experiment: Antibacterial activity against Pseudomonas aeruginosa ATCC 27853 at MIC after 3 to 4 days; type: functional
# diameter of the inhibition zone (DIZ) per entry

# TEST SMILES, RELATIONAL OPERATOR, diameter of the inhibition zone (DIZ) (mm)
records = [
    ("N#Cc1ccc(C(=O)OCc2csc(N)n2)cn1", "=", 16),
    ("Nc1nc(COC(=O)c2ccco2)cs1", "=", 16),
    ("Nc1nc(COC(=O)Cc2ccccc2OC(F)(F)F)cs1", "<", 10),
    ("Nc1nc(COC(=O)c2cccc([N+](=O)[O-])c2Cl)cs1", "<", 10),
    ("Nc1nc(COC(=O)c2c(Cl)cc(Cl)cc2Cl)cs1", "<", 10),
    ("Nc1nc(COC(=O)Cc2cccc(C(F)(F)F)c2)cs1", "=", 16),
    ("Nc1nc(COC(=O)c2cccs2)cs1", "=", 16),
    ("Nc1nc(COC(=O)c2ccc3ccccc3c2)cs1", "=", 16),
    ("Nc1nc(COC(=O)c2ccc(Cl)cc2)cs1", "=", 16),
    ("Nc1nc(COC(=O)c2ccccc2)cs1", "<", 10),
    ("N#Cc1cccc(C(=O)OCc2csc(N)n2)n1", "<", 10),
    ("Nc1nc(COC(=O)c2ccc(Br)cc2)cs1", "<", 10),
    ("Nc1nc(COC(=O)c2c(F)cccc2Cl)cs1", "=", 11),
    ("Nc1nc(COC(=O)c2ccccc2[N+](=O)[O-])cs1", "<", 10),
    ("Nc1nc(COC(=O)c2c(F)cc(F)cc2F)cs1", "=", 16),
    ("Nc1nc(COC(=O)C2(c3ccc(Cl)cc3)CC2)cs1", "=", 11),
    ("Nc1nc(COC(=O)c2cc(F)cc(C(F)(F)F)c2)cs1", "=", 11),
    ("Nc1nc(COC(=O)c2ccc([N+](=O)[O-])cc2)cs1", "=", 10),
    ("O=C(O)c1cn(C2CC2)c2cc(N3CCNCC3)c(F)cc2c1=O", "=", 16),
    ("N#CCCc1cccc(C(=O)OCc2csc(N)n2)c1", "=", 16),
    ("N#Cc1ccccc1C(=O)OCc1csc(N)n1", "=", 16),
]
